System: velvetleaf
test_name: Test A postemergence
Assay type: in vivo, Abutilon theophrasti
experimental_parameters: 125 g ai/ha, 0 to 100 scale (0 no effect, 100 complete control), approx. 10 d

{"structure_string": "CSc1nc(-c2ccc(F)cc2)nn1Cc1ccnc(C(F)(F)F)c1", "Plant response rating, Velvetleaf": 10}
{"structure_string": "CCCOc1nc(-c2ccc(F)cc2)nn1Cc1ccnc(C(F)(F)F)c1", "Plant response rating, Velvetleaf": 50}
{"structure_string": "Cc1nc(-c2ccc(C(F)(F)F)cc2)nn1Cc1cccc(C(F)(F)F)c1", "Plant response rating, Velvetleaf": 10}
{"structure_string": "CCc1nc(-c2ccc(F)cc2)nn1Cc1ccnc(C(F)(F)F)c1", "Plant response rating, Velvetleaf": 30}

====

Tested on: galium
test_name: Test C preemergence
Type: in vivo, Galium aparine
experimental_parameters: Preemergence, 31 g ai/ha, visual rating after 13 to 15 d
Excerpt: […]
Listed next: entries and their corresponding Galium plant response rating (0 to 100).

{"compound": "FC(F)(F)COc1nc(-c2ccccc2)nn1Cc1ccnc(C(F)(F)F)c1 [Compound 24]", "Galium plant response rating (0 to 100)": 5}
{"compound": "CCCc1nc(-c2ccc(F)cc2)nn1Cc1ccnc(C(F)(F)F)c1 [Compound 6]", "Galium plant response rating (0 to 100)": 90}
{"compound": "CCOc1nc(-c2ccccc2)nn1Cc1ccnc(C(F)(F)F)c1 [Compound 27]", "Galium plant response rating (0 to 100)": 90}
{"compound": "CCc1nc(-c2ccc(C(F)(F)F)cc2)nn1Cc1ccnc(C(F)(F)F)c1 [Compound 1]", "Galium plant response rating (0 to 100)": 70}
{"compound": "Fc1ccc(-c2nc(OCC(F)(F)F)n(Cc3ccnc(C(F)(F)F)c3)n2)cc1 [Compound 30]", "Galium plant response rating (0 to 100)": 60}
{"compound": "CCOc1nc(-c2ccc(F)cc2)nn1Cc1ccnc(C(F)(F)F)c1 [Compound 8]", "Galium plant response rating (0 to 100)": 80}

====

Tested on: ryegrass, Italian
test_name: Test A preemergence
Assay type: in vivo, Lolium multiflorum
experimental_parameters: 125 g ai/ha, 0 to 100 scale (0 no effect, 100 complete control)
Could you mark each record MET if its Plant response rating, Ryegrass, Italian falls strictly under 30, and NOT MET if it equals or exceeds it?

{"structure_string": "FC(F)(F)COc1nc(-c2ccccc2)nn1Cc1ccnc(C(F)(F)F)c1", "label": "NOT MET"}
{"structure_string": "FC(F)(F)COc1nc(-c2ccc(C(F)(F)F)cc2)nn1Cc1ccnc(C(F)(F)F)c1", "label": "NOT MET"}
{"structure_string": "COc1nc(-c2ccc(OC(F)(F)F)cc2)nn1Cc1ccnc(C(F)(F)F)c1", "label": "MET"}
{"structure_string": "CCCOc1nc(-c2ccc(C(F)(F)F)cc2)nn1Cc1ccnc(C(F)(F)F)c1", "label": "NOT MET"}
{"structure_string": "CCc1nc(-c2ccncc2)nn1Cc1ccnc(C(F)(F)F)c1", "label": "MET"}

====

Tested on: johnsongrass
test_name: Test C preemergence
Assay type: in vivo, Sorghum halepense
experimental_parameters: Johnsongrass, preemergence, 125 g ai/ha
reported_metric: Plant response rating (scale of 0 to 100 where 0 is no effect and 100 is complete control)

{"structure_string": "Fc1ccc(-c2nc(OCC(F)(F)F)n(Cc3ccnc(C(F)(F)F)c3)n2)cc1", "result": 85}
{"structure_string": "FC(F)(F)COc1nc(-c2ccc(Cl)cc2)nn1Cc1ccnc(C(F)(F)F)c1", "result": 85}
{"structure_string": "CCOc1nc(-c2ccccc2)nn1Cc1ccnc(C(F)(F)F)c1", "result": 80}
{"structure_string": "COc1nc(-c2ccc(F)cc2)nn1Cc1ccnc(C(F)(F)F)c1", "result": 65}
